Target: hUSP7CD (Homo sapiens)
Sequence (Q93009 208-560): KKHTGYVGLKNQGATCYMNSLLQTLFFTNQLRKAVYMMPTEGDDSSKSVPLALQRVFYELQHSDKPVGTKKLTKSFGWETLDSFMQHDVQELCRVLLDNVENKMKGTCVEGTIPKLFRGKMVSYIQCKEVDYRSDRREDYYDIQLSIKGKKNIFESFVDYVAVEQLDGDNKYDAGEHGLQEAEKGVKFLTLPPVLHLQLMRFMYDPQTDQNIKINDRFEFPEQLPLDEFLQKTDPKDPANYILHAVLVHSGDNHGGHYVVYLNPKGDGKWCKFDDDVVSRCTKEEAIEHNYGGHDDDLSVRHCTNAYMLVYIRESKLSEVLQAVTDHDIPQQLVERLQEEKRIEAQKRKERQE
measured.metric: pIC50
Answer as the number alone; pIC50 is minus log10 of concentration in mol/L.

Which value of pIC50 has been reported for `CS(=O)(=O)c1ccc(NC(=O)c2cc(C#N)c(Sc3c(Cl)cncc3Cl)s2)cc1` in the records?
5.28

====

System: HCT116 (p53+/+) cells
Test: Q-PCR relative expression levels, HCT116 (p53+/+)
Assay type: cell-based, human
I'd appreciate it if you could supply relative expression level of USP7 (Q-PCR) values for the items below.
// keep it numeric: no unit symbol after the value

Which value of relative expression level of USP7 (Q-PCR) has been reported for USP47i-2: USP47 siRNA #2, 5′-TGAAAAGGGATGTGCAAAA-3′ (chemistry not given here) in the records?
0.9487

Which value of relative expression level of USP7 (Q-PCR) has been reported for USP47i-1: USP47 siRNA #1, 5′-AAGCTACTCCTACTCATCTATTT-3′ (chemistry not given here) in the records?
0.6273

Which value of relative expression level of USP7 (Q-PCR) has been reported for USP7i-2: USP7 siRNA #2, 5′-ACCCUUGGACAAUAUUCCU-3′ (chemistry not given here) in the records?
0.5662

Which value of relative expression level of USP7 (Q-PCR) has been reported for USP47i: siRNA targeting USP47 (5′-TGAAAAGGGATGTGCAAAA-3′) (chemistry not given here) in the records?
1.017

Measured values drawn from paper PMC10516900 for this set.
